B1: Activity-dependent neuroprotector homeobox protein, residues 770 to 810; numbered along this chain, Q9H2P0 (parent)
chain: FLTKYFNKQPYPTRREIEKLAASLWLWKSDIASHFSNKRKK

# Variants of: B1
# Assay procedure: abundance fitness (aPCA) (normalised: wild type 0, dead -1); higher = more abundant; growth selection in yeast, the domain comes from the species named
# Applied conditions: Homo sapiens
# abundance fitness binned as A: < -0.2; B: ≥ -0.2 and < -0.04; C: ≥ -0.04

FLTKYFNKQPYPTRREAEKLAASLWLWKSDIASHFSNKRKK	B
FLTKYFNKQPYPTRREIEKLAASLWLWKSDIRSHFSNKRKK	C
FLTRYFNKQPYPTRREIEKLAASLWLWKSDIASHFSNKRKK	A
FLTKIFNKQPYPTRREIEKLAASLWLWKSDIASHFSNKRKK	B
FLTKYFNKQPYPTRREIEKLAASLWLWKSDIASHKSNKRKK	A
FLTKYFNKQPYPTRREIELLAASLWLWKSDIASHFSNKRKK	A
FLTKYFNKQPYPTRREIEKLAAHLWLWKSDIASHFSNKRKK	B
FLTKYFNKGPYPTRREIEKLAASLWLWKSDIASHFSNKRKK	B
FLTKYFNKQPYPTRREIEKLAASLWLWKSDIASHGSNKRKK	B
FLTKYFNKQPYPTRREIEKLAASLWLWKSDIASHFSCKRKK	C
FLTKYFNKQPYPTRREIEKLAASLWLWKSDIASHFSNERKK	A
FLTKYFNKQPYPTRREIEKLAAPLWLWKSDIASHFSNKRKK	B
FLTKYFNKQPYPTRREIEKLAASLWLWKMDIASHFSNKRKK	B
FLTKYFNKQPYPTRKEIEKLAASLWLWKSDIASHFSNKRKK	C
FLTKYFNKQCYPTRREIEKLAASLWLWKSDIASHFSNKRKK	C
FLTKYFNKQPYPTRSEIEKLAASLWLWKSDIASHFSNKRKK	C
FLTKYFNKQPYPTRREIEKLAASLWDWKSDIASHFSNKRKK	C
FLTKYFNKQPYPTRREIEKLAASLWLWKGDIASHFSNKRKK	C
FLTKYFNKPPYPTRREIEKLAASLWLWKSDIASHFSNKRKK	A
FLTKYFNKQPYPTRREIEKLAASLWLWESDIASHFSNKRKK	A
FLTKYFNKQPYPVRREIEKLAASLWLWKSDIASHFSNKRKK	C
FLTKYFNKQPYPTQREIEKLAASLWLWKSDIASHFSNKRKK	A
FLTKYFNKQPYPTRREIEKLAASLWLWKSMIASHFSNKRKK	B
FLTKYFNKQPYPTRREIEKLSASLWLWKSDIASHFSNKRKK	C
FLTGYFNKQPYPTRREIEKLAASLWLWKSDIASHFSNKRKK	A
FLTKYMNKQPYPTRREIEKLAASLWLWKSDIASHFSNKRKK	A
FLTKYFGKQPYPTRREIEKLAASLWLWKSDIASHFSNKRKK	A
FLTKYFNKQPYPTRREIEKLAAQLWLWKSDIASHFSNKRKK	A
LLTKYFNKQPYPTRREIEKLAASLWLWKSDIASHFSNKRKK	A
FLTKYFNKQPYPTRREIEKLAASLWLWKSDIASHFSNKRCK	B
FLTKYFNKQPYPTRREIEKLAASLWLWKSDIASHFSNKRSK	A
FLTKYFNKQPYGTRREIEKLAASLWLWKSDIASHFSNKRKK	C
FLTVYFNKQPYPTRREIEKLAASLWLWKSDIASHFSNKRKK	A
FLTKYFNKQPYPTRREIEKLAASLWLWKSDIAHHFSNKRKK	C
FLTKYFNKQPYPTRREIEKLAASLWLWKSDIASHFSNKSKK	B
RLTKYFNKQPYPTRREIEKLAASLWLWKSDIASHFSNKRKK	A
FLTKYFNKQPYPTRREIEKLAASLWLWKSDIASHHSNKRKK	A
FLTKYFNKQPYPTRREIEKVAASLWLWKSDIASHFSNKRKK	C
FLTKYFNKQPYPTRREIEKLAASLWLWKSDIASHFWNKRKK	B
FLTKYFNKQPYPTRREIEKLAASLWLWKSDIASHFSWKRKK	C
FLTKGFNKQPYPTRREIEKLAASLWLWKSDIASHFSNKRKK	A
FLTKYFNKQPYPTRREIEKLAASLWLWNSDIASHFSNKRKK	A
FLTKYFNKQPYPTRREIEKLAASLWAWKSDIASHFSNKRKK	B
FLTKYFNKQPYPTRREIEKLAASLWLWKSDIASHYSNKRKK	A
FLTKYFNKQPYPTRREIEKLAASLWLWKSDIASHMSNKRKK	C
FLTKYFEKQPYPTRREIEKLAASLWLWKSDIASHFSNKRKK	B
FLTKYFNKQPYPTRREIEKLAASLWLWKSDIAQHFSNKRKK	C
FLTKYFNKTPYPTRREIEKLAASLWLWKSDIASHFSNKRKK	B
FLTKYFNKQPYPTRREIEKLAKSLWLWKSDIASHFSNKRKK	C
FLTKYFNKQPYPTRRYIEKLAASLWLWKSDIASHFSNKRKK	B
FLTKYFNKQPYPTRREIQKLAASLWLWKSDIASHFSNKRKK	C
FLTKYFNKQKYPTRREIEKLAASLWLWKSDIASHFSNKRKK	B
FLTKYHNKQPYPTRREIEKLAASLWLWKSDIASHFSNKRKK	A
FLTKYFNKQPYPTRREIEKLAASLWLWKSDIASHFSNFRKK	A
FLCKYFNKQPYPTRREIEKLAASLWLWKSDIASHFSNKRKK	A
FLTKYFNKQPYPTRREIEKLAASLWLWKSDDASHFSNKRKK	C
FLTKYFNKQPYPTRREIEKLAASLWLWKSDIASHFSQKRKK	B
FLTKYFNKQPYPTRREIEKLAASLWLWKSDIAFHFSNKRKK	A
FLTKYFNKQPYPTRREIEKLAASLWLWKEDIASHFSNKRKK	A
FQTKYFNKQPYPTRREIEKLAASLWLWKSDIASHFSNKRKK	A
FLTKYFNKQPVPTRREIEKLAASLWLWKSDIASHFSNKRKK	C
FLTKYFNKQPYPTRREIEKLAASLWLWFSDIASHFSNKRKK	C
FLTKYFNKQPYPTRRECEKLAASLWLWKSDIASHFSNKRKK	C
FLTKYFNKQPYPTRREIEKLAASLWLWKSDIAKHFSNKRKK	C
FLTKYFNKQPYPTRREIEKLAASLWLWKSDIASHESNKRKK	B
FLTKYFNKQPYPTRREIEKLAASLWLWKSDIADHFSNKRKK	A
FLTKYKNKQPYPTRREIEKLAASLWLWKSDIASHFSNKRKK	B
FLKKYFNKQPYPTRREIEKLAASLWLWKSDIASHFSNKRKK	C
FLTKYFAKQPYPTRREIEKLAASLWLWKSDIASHFSNKRKK	B
FLTKYFNKQPYPTRREIEKLAASLWKWKSDIASHFSNKRKK	C
FLTKYFNKQPYPTRREIEKLAASLWLWKSDIASHASNKRKK	B
FLTKYFNKQPYPTRREIEKLAASQWLWKSDIASHFSNKRKK	A
FLTKYFNKQPYPTRREIEKLAASLWLWKSDIASCFSNKRKK	C
FLTKYFNKQPYPTRREIEKLAASLWLWKSDIASHFSNKRKN	B
FLTKYFNKQPYPTRREIEKLAASLWLGKSDIASHFSNKRKK	C
FLTKYFNKQPYPTRRELEKLAASLWLWKSDIASHFSNKRKK	C
FLTKYFNKQPWPTRREIEKLAASLWLWKSDIASHFSNKRKK	C
FLTKYFNKQPYPTRREIEKLAASLWLWKSDEASHFSNKRKK	A
FLTKYFNKQPYPTRREIEKLAASLWLWKSDIASHFSNWRKK	A
FLTKYFNKQPYPTRREIEKLAASLWLWKSDIASHFSPKRKK	B
FLTKYFNKQPYPTRWEIEKLAASLWLWKSDIASHFSNKRKK	A
FLTKYFNKQPYPTRREIEKLAASLWHWKSDIASHFSNKRKK	C
FLTKYFNKQPYPTRREIEKRAASLWLWKSDIASHFSNKRKK	B
FLTKYFNKQPYPTRREIEKLAASLWLWKSDIASHFSNKRKD	C
FLTKYFNKQPYPTRREIEKLAASLWLWKSDIASHFSNKRFK	B
FLTKYFNKQPYPTRREIEKLAASLWLWKSVIASHFSNKRKK	A
FLTKYFNKQPYPTRREIEKLASSLWLWKSDIASHFSNKRKK	B
FLTKYFNKQPYPTRREIEKLAESLWLWKSDIASHFSNKRKK	B

# credit: the Human Domainome abundance scans (Beltran et al. 2025)
